Catalogue of activity coefficient values
# protocol description: activity coefficient (dimensionless); of the first substance listed, at infinite dilution; xn = mol fraction of the nth substance listed
# assay context: 348.15 K; 101 kPa; Liquid; Chromatography; x1 = 0
No unit in the answer, only the number.

Ask: Please look up its activity coefficient: O [water] + CCCC[n+]1ccc(C)cc1.O=S(=O)([N-]S(=O)(=O)C(F)(F)F)C(F)(F)F
Reply: 2.54

Ask: Please look up its activity coefficient: CCCOCCC [dipropyl ether] + CCCC[n+]1ccc(C)cc1.O=S(=O)([N-]S(=O)(=O)C(F)(F)F)C(F)(F)F
Reply: 4.45

Ask: Please look up its activity coefficient: C1CCCCCC1 [cycloheptane] + CCCC[n+]1ccc(C)cc1.O=S(=O)([N-]S(=O)(=O)C(F)(F)F)C(F)(F)F
Reply: 7.9

Attention now turns to another entry.
Ask: Please look up its activity coefficient: CCCCCCCCC [nonane] + CCCC[n+]1ccc(C)cc1.O=S(=O)([N-]S(=O)(=O)C(F)(F)F)C(F)(F)F
Reply: 25.6

* * *

# protocol description: activity coefficient (dimensionless); of the first substance listed, at infinite dilution; xn = mol fraction of the nth substance listed
# assay context: 318.15 K; 101 kPa; Liquid; Chromatography; x1 = 0
Catalogue of activity coefficient values
No unit in the answer, only the number.

Past entries and their recorded results:
Ask: Please look up its activity coefficient: C1CCCC1 [cyclopentane] + CCCC[n+]1ccc(C)cc1.O=S(=O)([N-]S(=O)(=O)C(F)(F)F)C(F)(F)F
Reply: 5.89

Ask: Please look up its activity coefficient: c1ccsc1 [thiophene] + CCCC[n+]1ccc(C)cc1.O=S(=O)([N-]S(=O)(=O)C(F)(F)F)C(F)(F)F
Reply: 0.637

Ask: Please look up its activity coefficient: C=CCCCC [hex-1-ene] + CCCC[n+]1ccc(C)cc1.O=S(=O)([N-]S(=O)(=O)C(F)(F)F)C(F)(F)F
Reply: 6.82

Next:
Ask: Please look up its activity coefficient: CCCO [propan-1-ol] + CCCC[n+]1ccc(C)cc1.O=S(=O)([N-]S(=O)(=O)C(F)(F)F)C(F)(F)F
Reply: 1.84

* * *

# protocol description: activity coefficient (dimensionless); of the first substance listed, at infinite dilution; xn = mol fraction of the nth substance listed
# assay context: 318.15 K; 101 kPa; Liquid; Chromatography; x1 = 0
Checkbox rule: activity coefficient lower than 5 = true (1); activity coefficient not lower than 5 = false (0).

Solved cases (6 shown):
Ask: Could you please tell me whether activity coefficient recorded for c1ccccc1 [benzene] + CCCC[n+]1ccc(C)cc1.O=S(=O)([N-]S(=O)(=O)C(F)(F)F)C(F)(F)F is less than 5?
Reply: true (1)

Ask: Could you please tell me whether activity coefficient recorded for CCCOCCC [dipropyl ether] + CCCC[n+]1ccc(C)cc1.O=S(=O)([N-]S(=O)(=O)C(F)(F)F)C(F)(F)F is less than 5?
Reply: true (1)

Ask: Could you please tell me whether activity coefficient recorded for CCCCCCCCCC [decane] + CCCC[n+]1ccc(C)cc1.O=S(=O)([N-]S(=O)(=O)C(F)(F)F)C(F)(F)F is less than 5?
Reply: false (0)

Ask: Could you please tell me whether activity coefficient recorded for C#CCCC [1-pentyne] + CCCC[n+]1ccc(C)cc1.O=S(=O)([N-]S(=O)(=O)C(F)(F)F)C(F)(F)F is less than 5?
Reply: true (1)

Ask: Could you please tell me whether activity coefficient recorded for C=CCCCCCC [oct-1-ene] + CCCC[n+]1ccc(C)cc1.O=S(=O)([N-]S(=O)(=O)C(F)(F)F)C(F)(F)F is less than 5?
Reply: false (0)

Ask: Could you please tell me whether activity coefficient recorded for CCCCCCCCC [nonane] + CCCC[n+]1ccc(C)cc1.O=S(=O)([N-]S(=O)(=O)C(F)(F)F)C(F)(F)F is less than 5?
Reply: false (0)

# ---- query compound ----
Ask: Could you please tell me whether activity coefficient recorded for COC(C)(C)C [2-methoxy-2-methylpropane] + CCCC[n+]1ccc(C)cc1.O=S(=O)([N-]S(=O)(=O)C(F)(F)F)C(F)(F)F is less than 5?
Reply: true (1)
